Biological target: Adrenergic receptor alpha-2 (Rattus norvegicus, UniProt P22086+P19328+P22909)
Sequence (P22086 whole entry): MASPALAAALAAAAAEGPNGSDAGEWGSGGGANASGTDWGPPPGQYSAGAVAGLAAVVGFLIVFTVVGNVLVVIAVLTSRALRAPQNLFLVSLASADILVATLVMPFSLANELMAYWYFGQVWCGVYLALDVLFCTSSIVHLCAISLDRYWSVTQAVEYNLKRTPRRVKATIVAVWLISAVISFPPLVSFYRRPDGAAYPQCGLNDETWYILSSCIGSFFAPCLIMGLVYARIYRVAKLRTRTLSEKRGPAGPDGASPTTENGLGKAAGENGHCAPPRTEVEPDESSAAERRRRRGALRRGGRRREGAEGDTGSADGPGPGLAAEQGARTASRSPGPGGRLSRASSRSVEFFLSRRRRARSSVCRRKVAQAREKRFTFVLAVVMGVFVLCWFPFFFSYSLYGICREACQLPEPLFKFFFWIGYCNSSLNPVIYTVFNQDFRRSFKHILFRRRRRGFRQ
Sequence (P19328 whole entry): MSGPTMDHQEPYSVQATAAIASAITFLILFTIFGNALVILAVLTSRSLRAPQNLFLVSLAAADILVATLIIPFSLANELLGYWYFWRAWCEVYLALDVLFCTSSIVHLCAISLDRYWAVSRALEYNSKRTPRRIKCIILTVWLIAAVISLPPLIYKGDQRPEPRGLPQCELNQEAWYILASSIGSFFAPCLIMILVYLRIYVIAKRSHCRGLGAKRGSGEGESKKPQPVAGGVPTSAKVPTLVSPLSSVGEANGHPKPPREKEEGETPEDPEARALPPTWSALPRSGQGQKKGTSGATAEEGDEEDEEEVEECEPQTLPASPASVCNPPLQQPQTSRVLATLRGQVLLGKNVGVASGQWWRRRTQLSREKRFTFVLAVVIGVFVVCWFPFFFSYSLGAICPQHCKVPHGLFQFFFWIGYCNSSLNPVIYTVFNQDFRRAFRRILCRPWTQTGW
Sequence (P22909 whole entry): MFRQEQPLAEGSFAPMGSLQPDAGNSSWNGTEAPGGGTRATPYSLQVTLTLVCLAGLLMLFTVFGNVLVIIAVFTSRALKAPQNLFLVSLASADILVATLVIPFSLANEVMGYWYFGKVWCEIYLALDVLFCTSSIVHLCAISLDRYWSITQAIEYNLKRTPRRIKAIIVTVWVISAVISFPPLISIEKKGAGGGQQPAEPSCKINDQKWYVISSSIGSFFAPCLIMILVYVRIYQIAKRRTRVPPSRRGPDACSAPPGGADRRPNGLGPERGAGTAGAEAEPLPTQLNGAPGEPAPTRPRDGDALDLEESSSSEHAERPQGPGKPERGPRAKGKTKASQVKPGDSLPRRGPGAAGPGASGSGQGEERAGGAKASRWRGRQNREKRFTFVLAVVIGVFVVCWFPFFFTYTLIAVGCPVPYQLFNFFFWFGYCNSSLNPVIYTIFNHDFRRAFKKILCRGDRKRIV
Assay: Antagonist activity at alpha2 adrenoceptor in Sprague-Dawley rat prostatic vas deferens assessed as suppression of clonidine-mediated inhibition of twitch response after 30 mins
Assay type: functional, tissue-based
Value Type: pA2

Query Smiles: COc1cccc(OC)c1OCCNC[C@H]1COc2cccc(Cl)c2O1.Cl
Observed Measurement: 6.02
//
Query Smiles: COc1cccc(OC)c1OCCNC[C@H]1COc2cccc(OC)c2O1.Cl
Observed Measurement: 6.23
//
Query Smiles: COc1cccc(OC)c1OCCNC[C@H]1COc2ccccc2O1.Cl
Observed Measurement: 6.92
//
Query Smiles: COc1cccc(OC)c1OCCNC[C@H]1COc2c(OC)cccc2O1.Cl
Observed Measurement: 5.67
//
Query Smiles: COc1cccc(OC)c1OCCNC[C@H]1COc2cccc(F)c2O1.Cl
Observed Measurement: 6.26
